- subject.of.test: TxA2 synthesis in human blood platelet microsomes (Homo sapiens, UniProt P24557)
- Construct: containing human blood platelet microsomes (50 μg protein/ml); from tissue; host or cells: human blood platelet microsomes
- Sequence (P24557 whole entry): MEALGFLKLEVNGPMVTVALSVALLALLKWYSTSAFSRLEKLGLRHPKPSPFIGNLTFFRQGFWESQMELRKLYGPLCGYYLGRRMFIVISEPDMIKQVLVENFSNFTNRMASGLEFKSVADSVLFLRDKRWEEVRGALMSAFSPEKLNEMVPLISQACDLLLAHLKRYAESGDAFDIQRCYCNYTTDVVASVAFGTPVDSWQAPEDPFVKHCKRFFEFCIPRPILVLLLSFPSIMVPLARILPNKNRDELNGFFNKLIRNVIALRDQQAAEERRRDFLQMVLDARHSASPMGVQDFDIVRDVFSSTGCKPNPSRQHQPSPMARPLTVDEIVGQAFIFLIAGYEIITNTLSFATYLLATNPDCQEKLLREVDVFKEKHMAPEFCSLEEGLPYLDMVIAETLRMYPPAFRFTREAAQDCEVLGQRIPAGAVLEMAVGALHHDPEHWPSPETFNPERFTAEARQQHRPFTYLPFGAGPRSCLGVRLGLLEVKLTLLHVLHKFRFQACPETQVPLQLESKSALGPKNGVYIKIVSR
- protocol: TxA2 synthesis inhibiting action test (TxB2 by EIA)
- Type: biochemical
- recorded.conditions: test compound final concentration 10^−7M; human blood platelet microsomes 50 μg protein/ml; prostaglandin H2 substrate
- Experimental: 1 ml of a buffer (20 MM Tris-HCl buffer, 1 mM EDTA, pH 7.5) containing human blood platelet microsomes (50 μg protein/ml) and the test compound (final concentration 10^−7M) was agitated, then incubated at 0° C. for 30 minutes. To this was added prostaglandin H2 (100 ng/2 μl). This was incubated at 23° C. for 3 minutes to cause a reaction. […] The amount of the TxB2 in the supernatant was measured by the EIA method (Cayman Co. kit). […]
TxA2 synthesis inhibiting action Rate of suppression at 10^−7 M (%): recorded values
quantity.measured: TxA2 synthesis inhibiting action Rate of suppression at 10^−7 M (%)

- molecule: "Cc1nnc2n1-c1sc3c(c1C(c1ccccc1Cl)=NC2C)CCN(Cc1cccc(C(=NOCCCCC(=O)O)c2cccnc2)c1)C3 (mixture of isomers)"
  subject.of.test: "TxA2 synthesis in human blood platelet microsomes (Homo sapiens, UniProt P24557)"
  observed.result: "81.7%"
- molecule: "CCOC(=O)CCCCON=C(c1ccc(COCC(=O)N2CCc3c(sc4c3C(c3ccccc3Cl)=NC(C)c3nnc(C)n3-4)C2)cc1)c1cccnc1 (mixture of isomers)"
  subject.of.test: "TxA2 synthesis in human blood platelet microsomes (Homo sapiens, UniProt P24557)"
  observed.result: "75.6%"
- molecule: "CCOC(=O)C1=C(c2ccc(-n3c(C)nc4cnccc43)cc2)NC(C)=C(C(=O)Nc2ccccn2)C1c1ccccc1Cl (centres unmarked) [UK-74,505, reference compound]"
  subject.of.test: "TxA2 synthesis in human blood platelet microsomes (Homo sapiens, UniProt P24557)"
  observed.result: "0%"
- molecule: "CCOC(=O)CCCCON=C(c1cccnc1)c1cccc(CCCC(=O)N2CCc3c(sc4c3C(c3ccccc3Cl)=NC(C)c3nnc(C)n3-4)C2)c1 (mixture of isomers)"
  subject.of.test: "TxA2 synthesis in human blood platelet microsomes (Homo sapiens, UniProt P24557)"
  observed.result: "40.3%"
- molecule: "CCOC(=O)CCCCON=C(c1cccnc1)c1cccc(CN2CCc3c(sc4c3C(c3ccccc3Cl)=NC(C)c3nnc(C)n3-4)C2)c1 (mixture of isomers)"
  subject.of.test: "TxA2 synthesis in human blood platelet microsomes (Homo sapiens, UniProt P24557)"
  observed.result: "58.2%"
- molecule: "O=C(O)/C=C/c1ccc(Cn2ccnc2)cc1 [OKY-046, reference compound]"
  subject.of.test: "TxA2 synthesis in human blood platelet microsomes (Homo sapiens, UniProt P24557)"
  observed.result: "84.5%"
- molecule: "CCOC(=O)CCCCC=C(c1ccc(CN2CCc3c(sc4c3C(c3ccccc3Cl)=NC(C)c3nnc(C)n3-4)C2)cc1)c1cccnc1 (mixture of isomers)"
  subject.of.test: "TxA2 synthesis in human blood platelet microsomes (Homo sapiens, UniProt P24557)"
  observed.result: "83.7%"
- molecule: "CCOC(=O)CCCCON=C(c1ccc(CC(=O)N2CCc3c(sc4c3C(c3ccccc3Cl)=NC(C)c3nnc(C)n3-4)C2)cc1)c1cccnc1 (mixture of isomers)"
  subject.of.test: "TxA2 synthesis in human blood platelet microsomes (Homo sapiens, UniProt P24557)"
  observed.result: "79.6%"
